Data credit: patent US4339576A

- Test system: histamine induced bronchoconstriction
- protocolText: Histamine induced bronchoconstriction test in anesthetized dogs
- Format: in vivo
- appliedConditions: Canis lupus familiaris, intraduodenal, intraduodenally, read-out: AED40 (Approximate Effective Dose resulting in 40% inhibition of bronchoconstriction)

compound | targetUnderTest | ED40
CC(CN1CCC(NC(=O)C2CC2)CC1)c1ccc(C(=O)c2ccccc2)cc1 (centres unmarked) | histamine induced bronchoconstriction | 7.3 mg/kg
CCCC(=O)NC1CCN(CC(C)c2ccc(C(=O)c3ccccc3)cc2)CC1 (centres unmarked) | histamine induced bronchoconstriction | 2 mg/kg
CC(c1cccc(C(=O)c2ccccc2)c1)N1CCC(CN2CCOCC2)CC1 (centres unmarked) | histamine induced bronchoconstriction | > 30 mg/kg
CCC(=O)NC1CCN(CC(C)c2ccc(C(=O)c3ccccc3)cc2)CC1 (centres unmarked) | histamine induced bronchoconstriction | 30 mg/kg
CC(=O)NC1CCN(CC(C)c2ccc(C(=O)c3ccccc3)cc2)CC1.Cl.O (centres unmarked) | histamine induced bronchoconstriction | ~5 mg/kg
